- Protocol Summary: in vivo
- Run Conditions: Wistar, rat, brain, po, 3 mg/kg
Measure Name: Tmax (min)
# output: bare number, implied unit min

Tmax in this record for OC1Cc2cc(Cl)ccc2-n2c(nnc2[C@H]2CC[C@H](Oc3ccccn3)CC2)C1 (mixture of isomers) : 30

* * *

- Protocol Summary: in vivo
- Run Conditions: Wistar, rat, iv, 3 mg/kg
Measure Name: AUC(0-t) (µM·h)
Field: numeric (µM·h). Do not append units.

Form: molecule = OC1Cc2cc(Cl)ccc2-n2c(nnc2[C@H]2CC[C@H](Oc3ccccn3)CC2)C1 (mixture of isomers) ; AUC(0-t) = 0.876

* * *

- Protocol Summary: in vivo
- Run Conditions: Wistar, rat, plasma, iv, 3 mg/kg
Measure Name: Cmax (nM)
Number in nM, nothing else.

In plain terms, OC1Cc2cc(Cl)ccc2-n2c(nnc2[C@H]2CC[C@H](Oc3ccccn3)CC2)C1 (mixture of isomers) has a documented Cmax of 469

* * *

- Protocol Summary: in vitro
- Run Conditions: human, microsomes
// No strictly below 20 µL/min/mg in microsomal CLint at 1 µM; Yes otherwise

Can NCC1Cc2cc(Cl)ccc2-n2c(nnc2[C@H]2CC[C@H](Oc3ccccn3)CC2)C1 (stereo not given in full) be said to have microsomal CLint at 1 µM at or above 20 µL/min/mg?
Yes

Is the recorded value of microsomal CLint at 1 µM equal to or greater than 20 µL/min/mg for this compound? "N[C@H]1Cc2cc(Cl)ccc2-n2c(nnc2[C@H]2CC[C@H](Oc3ccccn3)CC2)C1"
No

Tell me whether microsomal CLint at 1 µM is at least 20 µL/min/mg here: "CC(C)(C)C(=O)N[C@@H]1Cc2cc(Cl)ccc2-n2c(nnc2[C@H]2CC[C@H](Oc3ccccn3)CC2)C1"
Yes

For this compound, is measured microsomal CLint at 1 µM 20 µL/min/mg or higher? FC1(F)CCC(NC2Cc3cc(Cl)ccc3-n3c(nnc3[C@H]3CC[C@H](Oc4ccccn4)CC3)C2)CC1 (stereo not given in full)
Yes

Given "O=C(N[C@@H]1Cc2cc(Cl)ccc2-n2c(nnc2[C@H]2CC[C@H](Oc3ccccn3)CC2)C1)C1CCC1" , state whether its microsomal CLint at 1 µM is at least 20 µL/min/mg.
Yes

Assess whether reported microsomal CLint at 1 µM for "CCN[C@@H]1Cc2cc(Cl)ccc2-n2c(nnc2[C@H]2CC[C@H](Oc3ccccn3)CC2)C1" sits at 20 µL/min/mg or higher.
Yes

Hello, I need to know if CNC1Cc2cc(Cl)ccc2-n2c(nnc2[C@H]2CC[C@H](Oc3ccccn3)CC2)C1 (stereo not given in full) has measured microsomal CLint at 1 µM not below 20 µL/min/mg. Thanks!
No

Is microsomal CLint at 1 µM at least 20 µL/min/mg? Consider "O=C(N[C@@H]1Cc2cc(Cl)ccc2-n2c(nnc2[C@H]2CC[C@H](Oc3ccccn3)CC2)C1)C(F)(F)F"
No

Could you please find out whether "N#CCC(=O)N[C@@H]1Cc2cc(Cl)ccc2-n2c(nnc2[C@H]2CC[C@H](Oc3ccccn3)CC2)C1" has microsomal CLint at 1 µM that meets 20 µL/min/mg or exceeds it?
No

Please indicate if the recorded microsomal CLint at 1 µM for "CN(C)CCC(=O)N[C@@H]1Cc2cc(Cl)ccc2-n2c(nnc2[C@H]2CC[C@H](Oc3ccccn3)CC2)C1" meets or exceeds 20 µL/min/mg.
No

# bool: microsomal CLint at 1 µM of "O=C(N[C@@H]1Cc2cc(Cl)ccc2-n2c(nnc2[C@H]2CC[C@H](Oc3ccccn3)CC2)C1)C1CC1" >= 20 µL/min/mg
No

Given the entry "N[C@@H]1Cc2cc(Cl)ccc2-n2c(nnc2[C@H]2CC[C@H](Oc3ccccn3)CC2)C1" , answer whether its microsomal CLint at 1 µM meets or surpasses 20 µL/min/mg.
No

Given the entry CN(C)CC1Cc2cc(Cl)ccc2-n2c(nnc2[C@H]2CC[C@H](Oc3ccccn3)CC2)C1 (stereo not given in full) , answer whether its microsomal CLint at 1 µM meets or surpasses 20 µL/min/mg.
Yes

Identify whether the reported microsomal CLint at 1 µM of the following compound is 20 µL/min/mg or greater: Clc1ccc2c(c1)CC(NC1CCOCC1)Cc1nnc([C@H]3CC[C@H](Oc4ccccn4)CC3)n1-2 (stereo not given in full)
Yes

Quick check: does Clc1ccc2c(c1)CC(CN1CCOCC1)Cc1nnc([C@H]3CC[C@H](Oc4ccccn4)CC3)n1-2 (stereo not given in full) have microsomal CLint at 1 µM greater than or equal to 20 µL/min/mg?
Yes

Could you verify whether the entry CN1CCN(CC2Cc3cc(Cl)ccc3-n3c(nnc3[C@H]3CC[C@H](Oc4ccccn4)CC3)C2)CC1 (stereo not given in full) shows microsomal CLint at 1 µM of no less than 20 µL/min/mg?
No

Say whether "CC(C)(O)C(=O)N[C@@H]1Cc2cc(Cl)ccc2-n2c(nnc2[C@H]2CC[C@H](Oc3ccccn3)CC2)C1" shows microsomal CLint at 1 µM of 20 µL/min/mg or more.
No

Reported microsomal CLint at 1 µM reaches at least 20 µL/min/mg for CN(C)CC(=O)NC1Cc2cc(Cl)ccc2-n2c(nnc2[C@H]2CC[C@H](Oc3ccccn3)CC2)C1 (mixture of isomers) ?
No

Reported microsomal CLint at 1 µM at or above 20 µL/min/mg? CN(C)C1Cc2cc(Cl)ccc2-n2c(nnc2[C@H]2CC[C@H](Oc3ccccn3)CC2)C1 (stereo not given in full)
Yes

In plain terms: is recorded microsomal CLint at 1 µM at least 20 µL/min/mg for "O=C(N[C@@H]1Cc2cc(Cl)ccc2-n2c(nnc2[C@H]2CC[C@H](Oc3ccccn3)CC2)C1)C1CCC(F)(F)CC1" ?
Yes

Evaluate Clc1ccc2c(c1)CC(CNC1CCOCC1)Cc1nnc([C@H]3CC[C@H](Oc4ccccn4)CC3)n1-2 (stereo not given in full) : microsomal CLint at 1 µM at minimum 20 µL/min/mg?
No

Is reported microsomal CLint at 1 µM greater than or equal to 20 µL/min/mg here: "CC(=O)N[C@@H]1Cc2cc(Cl)ccc2-n2c(nnc2[C@H]2CC[C@H](Oc3ccccn3)CC2)C1"
No

Please check the record NC1Cc2cc(Cl)ccc2-n2c(nnc2[C@H]2CC[C@H](Oc3ccccn3)CC2)C1 (mixture of isomers) and state if its microsomal CLint at 1 µM is at or above 20 µL/min/mg.
No

Could you please find out whether Clc1ccc2c(c1)CC(NC1COC1)Cc1nnc([C@H]3CC[C@H](Oc4ccccn4)CC3)n1-2 (stereo not given in full) has microsomal CLint at 1 µM that meets 20 µL/min/mg or exceeds it?
No
